Value source: patent US20250074911A1

Molecular target: full-length BTK C481S enzyme (Homo sapiens (Human), UniProt Q06187, C481S)
Sequence (Q06187 whole entry C481S): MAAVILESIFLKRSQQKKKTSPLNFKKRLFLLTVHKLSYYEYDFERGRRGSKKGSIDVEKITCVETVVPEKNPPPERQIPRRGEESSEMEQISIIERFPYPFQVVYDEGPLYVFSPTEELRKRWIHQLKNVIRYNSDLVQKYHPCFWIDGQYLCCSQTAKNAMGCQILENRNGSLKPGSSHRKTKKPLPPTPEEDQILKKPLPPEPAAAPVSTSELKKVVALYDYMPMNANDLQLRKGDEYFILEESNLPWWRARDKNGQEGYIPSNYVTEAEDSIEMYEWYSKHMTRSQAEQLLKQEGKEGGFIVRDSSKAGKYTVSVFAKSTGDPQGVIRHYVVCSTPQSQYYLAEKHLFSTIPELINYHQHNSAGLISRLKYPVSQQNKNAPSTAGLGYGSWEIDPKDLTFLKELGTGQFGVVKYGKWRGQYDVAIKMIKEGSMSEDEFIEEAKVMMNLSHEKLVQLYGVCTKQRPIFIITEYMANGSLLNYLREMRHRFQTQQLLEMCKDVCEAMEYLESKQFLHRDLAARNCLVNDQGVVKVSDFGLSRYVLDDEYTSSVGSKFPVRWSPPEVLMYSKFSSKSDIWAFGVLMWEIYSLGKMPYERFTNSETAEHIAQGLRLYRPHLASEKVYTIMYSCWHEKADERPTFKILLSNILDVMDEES
Test: Biochemical kinase assay BTK C481S (IMAP)
pIC50: −log10 of the molar value.
quantity_kind: pIC50

Here are 5 compounds together with their reported answers.
compound	quantity_kind	result
COc1ccc(F)cc1C(=O)NCc1ccc(-c2nc3n4c(cnc(N)c24)/C=C/CCN[C@H](C)CC(=O)N[C@@H]2CC[C@@H]3C2)cc1	pIC50	> 8.30
CC1CCn2nc(-c3ccc(C(=O)Nc4cc(C(F)(F)F)ccn4)cc3)c3c(N)ncc(c32)/C=C/C(O)CCCCC(=O)N1 (stereo not drawn)	pIC50	> 8.30
N#Cc1ccnc(NC(=O)c2ccc(-c3nn4c5c(cnc(N)c35)/C=C/CCCCCC(=O)N[C@@H]3CC[C@@H]4C3)cc2)c1	pIC50	> 8.30
Nc1ncc2c3c1c(-c1ccc(C(=O)Nc4cc(C(F)(F)F)ccn4)cc1)nn3[C@@H]1CCC[C@H](C1)C(=O)NCCCC/C=C/C2 [Example 85a]	pIC50	6.30 to 7.30
CC(=O)N1CC/C=C/c2cnc(N)c3c(-c4ccc(C(=O)Nc5cc(C(F)(F)F)ccn5)cc4)nn(c23)[C@@H]2CCC[C@H](C2)NC(=O)C1	pIC50	> 8.30

Consider the additional compound presented here.
Give its pIC50 value. Item: C[C@H]1CC(=O)N[C@@H]2CCCC(C2)n2nc(-c3ccc(C(=O)Nc4cc(C(F)(F)F)ccn4)cc3)c3c(N)ncc(c32)/C=C/CCN1
> 8.30

###

Test system: wt-TMD8 diffuse large B-cell lymphoma cells
Assay: Cell proliferation assay wt-TMD8 (ATPlite, 120 hours)
Format: cell-based
Conditions: B-cell; wt-TMD8 cells, 120 hours, ATPlite; read-out: IC50 wt-TMD8
Procedure: Cell proliferation assay wt-TMD8 diffuse large B-cell lymphoma cells were purchased from Tokyo Medical and Dental University and cultured in RPMI-1640 cell culture medium (cat. no. 61870036, Life Technologies), supplemented with 10% (v/v) heat-inactivated fetal bovine calf serum and 1% penicillin/streptavidin. […] Luminescence was recorded on an Envision multimode reader. […] In addition, maximum growth was determined by incubation of a duplicate without compound in the presence of 0.3% DMSO. […]
pIC50: −log10 of the molar value.
quantity_kind: pIC50

Example compounds with recorded pIC50:
compound	pIC50
CN1C/C=C/c2cnc(N)c3c(-c4ccc(C(=O)Nc5cc(C(F)(F)F)ccn5)cc4)nn(c23)[C@@H]2CCC[C@H](C2)NC(=O)CCC1 [Example 10]	> 7.00
Nc1ncc2c3c1c(-c1ccc(C(=O)Nc4cc(C(F)(F)F)ccn4)cc1)nn3[C@@H]1CCC[C@H](C1)NC(=O)CCCC[C@@H](O)/C=C/2 [Example 12]	> 7.00

Lab note: next compound to report on.
Would you kindly share the measured pIC50 for C[C@@H]1CCn2nc(-c3ccc(C(=O)Nc4cc(C(F)(F)F)ccn4)cc3)c3c(N)ncc(c32)/C=C/COCC(=O)N1 [Example 56] ?
> 7.00

###

Let's go through some recorded IC50 values for full-length wt-BTK enzyme (Homo sapiens (Human)) together.

Quick check: IC50 of C[C@@H]1CCn2nc(-c3ccc(C(=O)Nc4cc(C(F)(F)F)ccn4)cc3)c3c(N)ncc(c32)C/C=C/CCCC(=O)N1 [Example 109b] ?
50 to 500 nM
